Reported OD450 is given for each of the following binders.
Target: T1, Peptide 8: Biotin-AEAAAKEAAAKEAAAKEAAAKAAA-Tyr-acid (N-terminal biotin; C-terminal acid)
T1 construct: control peptide without PC
T1 peptide: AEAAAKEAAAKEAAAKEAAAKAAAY
Experiment: scFv ELISA
Number in OD450, nothing else.

PcOxP_DB01_C01 (scFv, V domains shown, scFv in periplasmic extract) VH: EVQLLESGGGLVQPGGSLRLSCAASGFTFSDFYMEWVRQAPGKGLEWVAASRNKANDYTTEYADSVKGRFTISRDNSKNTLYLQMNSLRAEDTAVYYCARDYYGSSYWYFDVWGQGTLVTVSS VL: DIQMTQSPSSLSASVGDRVTITCVASESLYSSKHKVHYLAWYQQKPGKAPKLLIYGASNRYIGVPSRFSGSGSGTDFTLTISSLQPEDFATYYCAQFYSYPLTFGGGTKVEIK :: 0.05

Lab note: measured OD450 of PcOxP_DB02_A10 (scFv, V domains shown, scFv in periplasmic extract) VH: EVQLLESGGGLVQPGGSLRLSCAASGFAFSDFYMEWVRQAPGKGLEWVAASRNKANDYTTEYADSVKGRFTISRDNSKNTLYLQMNSLRAEDTAVYYCARDYYGSSYWYFDVWGQGTLVTVSS VL: DIQMTQSPSSLSASVGDRVTITCTASESLYSSKHKVHYLAWYQQKPGKAPKLLIYGASNRQSGVPSRFSGSGSGTDFTLTISSLQPEDFATYYCAQFYAYPLTFGGGTKVEIK was 0.04

Lab note: measured OD450 of PcOxP_DB02_A12 (scFv, V domains shown, scFv in periplasmic extract) VH: EVQLLESGGGLVQPGGSLRLSCAASGFTFSDDYMEWVRQAPGKGLEWVAASRNKANDYTTEYADSVKGRFTISRDNSKNTLYLQMNSLRAEDTAVYYCARDYQGSSYWYFDVWGQGTLVTVSS VL: DIQMTQSPSSLSASVGDRVTITCTASESLYSSKHKVHYLAWYQQKPGKAPKLLIYGAFNRYTGVPSRFSGSGSGTDFTLTISSLQPEDFATYYCAQFYTYPLTFGGGTKVEIK was 0.06

Lab note: measured OD450 of PcOxP_DB01_C12 (scFv, V domains shown, scFv in periplasmic extract) VH: EVQLLESGGGLVQPGGSLRLSCAASGFTFSDFYMEWVRQAPGKGLEWVAASRNKANDYTTELADSVKGRFTISRDNSKNTLYLQMNSLRAEDTAVYYCARDYYGSSYWYFDVWGQGTLVTVSS VL: DIQMTQSPSSLSASVGDRVTITCTASESLYSSKHKVHYLAWYQQKPGKAPKLLIYGAANRYIGVPSRFSGSGSGTDFTLTISSLQPEDFATYYCAQFYVYPLTFGGGTKVEIK was 0.05

Lab note: measured OD450 of PcOxP_DB01_B11 (scFv, V domains shown, scFv in periplasmic extract) VH: EVQLLESGGGLVQPGGSLRLSCAASGFTFEDFYMEWVRQAPGKGLEWVAASRNKANDYTTEYADSVKGRFTISRDNSKNTLYLQMNSLRAEDTAVYYCARDYFGSSYWYFDVWGQGTLVTVSS VL: DIQMTQSPSSLSASVGDRVTITCTASESLYSSKHKVHYLAWYQQKPGKAPKLLIYGASNRYHGVPSRFSGSGSGTDFTLTISSLQPEDFATYYCAQFYSYPLTFGGGTKVEIK was 0.04

Lab note: measured OD450 of PcOxP_DB01_G01 (scFv, V domains shown, scFv in periplasmic extract) VH: EVQLLESGGGLVQPGGSLRLSCAASGFTGSDFYMEWVRQAPGKGLEWVAASRNKGNSYTTEYADSVKGRFTISRDNSKNTLYLQMNSLRAEDTAVYYCARDYYGSSYWYFDVWGQGTLVTVSS VL: DIQMTQSPSSLSASVGDRVTITCTASESLYGSKHKVHYLAWYQQKPGKAPKLLIYGASNRYSGVPSRFSGSGSGTDFTLTISSLQPEDFATYYCAQFYSYPLTFGGGTKVEIK was 0.05

Lab note: measured OD450 of PcOxP_DB02_F12 (scFv, V domains shown, scFv in periplasmic extract) VH: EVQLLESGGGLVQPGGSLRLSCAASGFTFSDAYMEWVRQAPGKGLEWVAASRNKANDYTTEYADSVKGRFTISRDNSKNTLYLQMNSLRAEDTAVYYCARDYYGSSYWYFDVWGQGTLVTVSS VL: DIQMTQSPSSLSASVGDRVTITCEASESLYSSKHKVHYLAWYQQKPGKAPKLLIYGASNRYPGVPSRFSGSGSGTDFTLTISSLQPEDFATYYCAQFYEYPLTFGGGTKVEIK was 0.04

Lab note: measured OD450 of PcOxP_DB02_C06 (scFv, V domains shown, scFv in periplasmic extract) VH: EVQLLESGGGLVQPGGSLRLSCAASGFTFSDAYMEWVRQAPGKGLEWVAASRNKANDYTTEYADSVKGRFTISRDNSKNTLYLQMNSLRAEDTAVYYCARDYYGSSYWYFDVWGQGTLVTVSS VL: DIQMTQSPSSLSASVGDRVTITCTASEWLYSSKHKVHYLAWYQQKPGKAPKLLIYGASNRNIGVPSRFSGSGSGTDFTLTISSLQPEDFATYYCAQFYYYPLTFGGGTKVEIK was 0.05

Lab note: measured OD450 of PcOxP_DB02_C01 (scFv, V domains shown, scFv in periplasmic extract) VH: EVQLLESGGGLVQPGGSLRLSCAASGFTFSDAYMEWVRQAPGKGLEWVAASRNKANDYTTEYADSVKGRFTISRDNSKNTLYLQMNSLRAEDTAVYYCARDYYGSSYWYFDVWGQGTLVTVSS VL: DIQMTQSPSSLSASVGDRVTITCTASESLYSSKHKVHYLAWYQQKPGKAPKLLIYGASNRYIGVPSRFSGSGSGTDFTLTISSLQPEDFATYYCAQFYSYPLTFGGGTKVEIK was 0.05

Lab note: measured OD450 of PcOxP_DB01_E05 (scFv, V domains shown, scFv in periplasmic extract) VH: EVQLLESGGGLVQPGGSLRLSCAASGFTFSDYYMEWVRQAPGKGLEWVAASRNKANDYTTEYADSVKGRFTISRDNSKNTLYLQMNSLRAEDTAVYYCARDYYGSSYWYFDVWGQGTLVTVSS VL: DIQMTQSPSSLSASVGDRVTITCTASESLYSSKHKVNYLAWYQQKPGKAPKLLIYGASNRYIGVPSRFSGSGSGTDFTLTISSLQPEDFATYYCAQFYQYPLTFGGGTKVEIK was 0.06
